Test system: Yap1 mRNA
Test: Antisense inhibition of human Yap1 in A-431 cells by cEt gapmers, single dose (Example 2, RTS4814)
Assay type: cell-based
Details: Table 6; A-431 cells, 5,000 cells per well, free uptake, 2,000 nM modified oligonucleotide, approx. 48 hours; RTS4814; normalized to RIBOGREEN; Yap1 mRNA relative to untreated control cells
Strand notation (5' to 3'): a small letter for the sugar, then the base; units joined by * are phosphorothioate-linked, units joined directly phosphodiester-linked; [ ] holds rarer units or linkages, { } end groups; capitals alone tell only the bases. k = constrained ethyl (cEt); [5mC] = 5-methylcytosine; d = 2'-deoxy (DNA)
Some substances, each annotated with its measured YAP1 (% UTC).
Express it in % UTC; write the number only.

>>> endpoint_value("716516 (antisense kA*kA*k[5mC]*dT*dT*dT*d[5mC]*d[5mC]*d[5mC]*dA*d[5mC]*d[5mC]*d[5mC]*kT*k[5mC]*k[5mC]) [Compound 716516]")
84

Task item: I have this substance here, 716390 (kT*k[5mC]*kT*d[5mC]*dT*dG*dG*dT*dT*d[5mC]*dA*dT*dG*kG*k[5mC]*kA; antisense) [Compound 716390] , and I need its recorded YAP1 (% UTC).
Reply: 66

Task item: I have this substance here, 716471 (k[5mC]*k[5mC]*kT*dA*d[5mC]*dT*d[5mC]*dA*d[5mC]*dT*dG*dA*dA*kT*kT*k[5mC]; antisense) [Compound 716471] , and I need its recorded YAP1 (% UTC).
Reply: 48

Task item: I have this substance here, 716519 (antisense kG*kT*kT*dT*dA*dT*dA*dA*dA*dG*dT*dT*d[5mC]*kT*k[5mC]*kT) [Compound 716519] , and I need its recorded YAP1 (% UTC).
Reply: 57

Task item: I have this substance here, 716366 (k[5mC]*kA*kG*dG*dT*d[5mC]*dG*dG*dT*d[5mC]*dT*d[5mC]*d[5mC]*kG*kA*kG; antisense) [Compound 716366] , and I need its recorded YAP1 (% UTC).
Reply: 95

Task item: I have this substance here, 716537 (antisense kA*kT*kG*dT*dG*d[5mC]*dT*d[5mC]*d[5mC]*dA*dT*d[5mC]*dA*kA*k[5mC]*k[5mC]) [Compound 716537] , and I need its recorded YAP1 (% UTC).
Reply: 36

Task item: I have this substance here, 716543 (antisense kT*kA*kT*dT*dT*dG*dT*dA*dG*d[5mC]*dA*dA*dA*kG*kT*k[5mC]) [Compound 716543] , and I need its recorded YAP1 (% UTC).
Reply: 35

Task item: I have this substance here, 716474 (kT*kA*kA*dA*dT*dG*dA*dA*dG*dG*dT*dA*dA*kA*k[5mC]*k[5mC]; antisense) [Compound 716474] , and I need its recorded YAP1 (% UTC).
Reply: 120

Task item: I have this substance here, 716372 (kA*kT*kG*dA*dG*d[5mC]*dT*d[5mC]*dG*dA*dA*d[5mC]*dA*kT*kG*k[5mC]; antisense) [Compound 716372] , and I need its recorded YAP1 (% UTC).
Reply: 61

Task item: I have this substance here, 716507 (antisense kA*k[5mC]*kT*dA*d[5mC]*dT*d[5mC]*dT*dA*dA*dA*dA*d[5mC]*kT*k[5mC]*k[5mC]) [Compound 716507] , and I need its recorded YAP1 (% UTC).
Reply: 53

Task item: I have this substance here, 716531 (antisense kG*kG*kA*d[5mC]*dA*dT*dA*dA*dA*dA*d[5mC]*dA*dA*kG*kA*kG) [Compound 716531] , and I need its recorded YAP1 (% UTC).
Reply: 65

Task item: I have this substance here, 716420 (k[5mC]*kA*kA*d[5mC]*dT*dG*dG*d[5mC]*dT*dT*dA*dT*dG*kG*kA*kA; antisense) [Compound 716420] , and I need its recorded YAP1 (% UTC).
Reply: 50

Task item: I have this substance here, 716564 (k[5mC]*kT*kT*dT*dT*dG*dG*dG*d[5mC]*dA*dA*dA*dG*kT*kT*k[5mC]; antisense) [Compound 716564] , and I need its recorded YAP1 (% UTC).
Reply: 103

Task item: I have this substance here, 716522 (antisense kG*kT*kG*dA*d[5mC]*dT*dG*dA*dA*dA*d[5mC]*dT*d[5mC]*kT*kA*kG) [Compound 716522] , and I need its recorded YAP1 (% UTC).
Reply: 47

Task item: I have this substance here, 716369 (k[5mC]*kG*kG*d[5mC]*dG*dG*d[5mC]*dT*dT*dG*dA*dA*dG*kA*kA*kG; antisense) [Compound 716369] , and I need its recorded YAP1 (% UTC).
Reply: 94

Task item: I have this substance here, 716405 (kT*kG*kT*dT*dA*dA*dG*dG*dA*dA*dA*dG*dG*kA*kT*k[5mC]; antisense) [Compound 716405] , and I need its recorded YAP1 (% UTC).
Reply: 149

Task item: I have this substance here, 716396 (k[5mC]*kA*kG*dT*dT*d[5mC]*dT*dT*dG*d[5mC]*dT*dG*dT*kT*kT*k[5mC]; antisense) [Compound 716396] , and I need its recorded YAP1 (% UTC).
Reply: 123

Task item: I have this substance here, 716429 (kT*kG*kG*d[5mC]*dA*dT*d[5mC]*d[5mC]*dA*dT*d[5mC]*dA*dT*k[5mC]*k[5mC]*kA; antisense) [Compound 716429] , and I need its recorded YAP1 (% UTC).
Reply: 28

Task item: I have this substance here, 716492 (kA*kA*kA*d[5mC]*dA*d[5mC]*dA*dG*dA*dG*dG*dT*dG*k[5mC]*kT*kA; antisense) [Compound 716492] , and I need its recorded YAP1 (% UTC).
Reply: 72

Task item: I have this substance here, 716534 (antisense kG*kA*kT*dT*dA*dT*dA*dA*dA*dA*dT*dT*dG*kG*kT*kT) [Compound 716534] , and I need its recorded YAP1 (% UTC).
Reply: 90

Task item: I have this substance here, 716459 (k[5mC]*kG*k[5mC]*dT*dA*d[5mC]*d[5mC]*dA*dT*dT*dT*dT*dA*kA*kA*kA; antisense) [Compound 716459] , and I need its recorded YAP1 (% UTC).
Reply: 121
